- Assay Overview: rat pharmacokinetics, plasma LC-MS/MS
- Type: in vivo
- Assay Context: male, Sprague-Dawley, plasma, iv, 5 mg/kg, IV 5 mg/kg, read-out: Terminal plasma half-life (converted)
- Procedure: Preliminary pharmacokinetic and preliminary toxicology information was obtained following a single intravenous dose of 5 mg/kg and a single 20 mg/kg PO dose to male Sprague-Dawley rats for 5 separate test articles. AV-398 was dosed both via the IV and PO routes. Blood was collected from the animals in Groups 1 through 10 for pharmacokinetic analysis. […] The plasma samples were analyzed by LC-MS/MS to determine the plasma concentrations of drug candidates. […]
Test Readout: half-life (min)
Give bare numbers, in min.

Given CCOc1cc(C=C2S/C(=N/c3ccc(C(=O)O)cc3)N(C)C2=O)ccc1O (stereo in doubt) , state its recorded half-life.
30
